- Test system: RAW-Dual
- ASSAY_PROTOCOL: NF-kB SEAP reporter activity, fold change vs agonist alone; cytotoxicity flag (confluency mask): not cytotoxic; higher = enhanced NF-kB activity
- MEASUREMENT_CONDITIONS: agonist: Pam3CSK4 (TLR2/1) 0.1 ug/mL
Over roughly 2,900 compounds, “NF-kB SEAP reporter activity, fold change vs agonist alone” has its median near 0.99; the highest 2% begin near 2.6. The full list was thinned out, with the highest values kept by preference.
Tick y if NF-kB SEAP reporter activity is 2 or greater. Tick n if NF-kB SEAP reporter activity is less than 2.

{"COMPOUND": "CCN(CC)CCCCC(NC(=O)C(CC(C)C)NC(=O)C(C)NC(=O)C(Cc1ccccc1)NC(=O)c1ccc(C(C)(C)C)cc1)C(=O)NC(CO)C(=O)OC (stereo not given) (library stock concentration (final ~1000-fold dilution): 10 mM)", "LABEL_VALUE": "n"}
{"COMPOUND": "COC(=O)C(CC(C)C)NC(=O)c1ccc(NCC(N)CS)cc1-c1cccc2ccccc12.O=C(O)C(F)(F)F (stereo not given) (library stock concentration (final ~1000-fold dilution): 10 mM)", "LABEL_VALUE": "y"}

# check: NF-kB SEAP reporter activity of CCn1c2ccccc2c2cc(-n3nncc3-c3ccccc3)ccc21 (library stock concentration (final ~1000-fold dilution): 10 mM) is greater than or equal to 2
y

# check: NF-kB SEAP reporter activity of CCN(CC)Cc1ccc(C(=O)N(CCc2ccccc2OC)C2CCNC2)cc1 (stereo not given) (library stock concentration (final ~1000-fold dilution): 10 mM) is greater than or equal to 2
n

# check: NF-kB SEAP reporter activity of COC(=O)C(CCSC)NC(=O)c1ccc(NCC(N)CS)cc1-c1ccccc1.Cl (stereo not given) (library stock concentration (final ~1000-fold dilution): 10 mM) is greater than or equal to 2
n

* * *

- Test system: RAW-Dual
- ASSAY_PROTOCOL: NF-kB SEAP reporter activity, fold change vs agonist alone; higher = enhanced NF-kB activity
- MEASUREMENT_CONDITIONS: library stock concentration (final ~1000-fold dilution): 10 mM; cytotoxicity flag (confluency mask): not cytotoxic; agonist: Imiquimod (TLR7) […]
In all, about 2,900 compounds were measured (“NF-kB SEAP reporter activity, fold change vs agonist alone”: median about 0.99, highest 2% from about 2.6 on). What follows is part of a selection rich in the highest values, with near analogues and random picks from the rest.
Tick yes if NF-kB SEAP reporter activity is 1 or greater. Tick no if NF-kB SEAP reporter activity is less than 1.

Take a look at these entries with their results.
{"COMPOUND": "Cc1ncc(NC(=O)c2cccc(C(F)(F)F)c2)cc1-c1cnc(OC2CCOCC2)c(N2CCOCC2)c1", "LABEL_VALUE": "no"}
{"COMPOUND": "CS(=O)(=O)c1ccc(C(=O)Nc2ccc(Cl)c(-c3ccccn3)c2)c(Cl)c1", "LABEL_VALUE": "yes"}
{"COMPOUND": "Cn1cc(/C=C/C(=O)c2cccc(F)c2)cc1/C=C/C(=O)NO", "LABEL_VALUE": "no"}
{"COMPOUND": "CC(C)=CC(C)C[C@](C)(O[C@@H]1O[C@H](CO)[C@@H](O)[C@H](O)[C@H]1O)[C@H]1CC[C@]2(C)C3CCC4C(C)(C)C(O[C@@H]5O[C@H](CO)[C@@H](O)[C@H](O)[C@H]5O[C@@H]5O[C@H](CO)[C@@H](O)[C@H](O)[C@H]5O)CC[C@]4(C)C3C[C@H](O)[C@@H]12 (stereo partly drawn)", "LABEL_VALUE": "no"}
{"COMPOUND": "N=C(N)Nc1nc(CSCCC(=N)NS(N)(=O)=O)cs1", "LABEL_VALUE": "no"}

Kindly consider the entry below.
# check: NF-kB SEAP reporter activity of Nc1nc(-c2ccco2)c2cnn(Cc3ccccc3F)c2n1 is greater than or equal to 1
yes

* * *

Answer each item with its documented NF-kB SEAP reporter activity.
- Test system: RAW-Dual
- ASSAY_PROTOCOL: NF-kB SEAP reporter activity, fold change vs agonist alone; cytotoxicity flag (confluency mask): not cytotoxic; higher = enhanced NF-kB activity
- MEASUREMENT_CONDITIONS: agonist: ODN 1826 (TLR9) 0.5 ug/mL
The full ranking holds about 2,900 compounds; the median of “NF-kB SEAP reporter activity, fold change vs agonist alone” is about 0.99, and the highest 2% start at about 2.6. The sample as a whole holds a higher share of the highest values than the screen did.
Numbers only.

{"MOLECULE": "CCC1C(=O)N(C)c2cnc(Nc3ccc(C(=O)NC4CCC(N5CCN(CC6CC6)CC5)CC4)cc3OC)nc2N1C(C)C (stereo not given) (library stock concentration (final ~1000-fold dilution): 10 mM)", "VAL": 0.977}
{"MOLECULE": "CCOC(=O)C(CCc1ccccc1)NC(C)C(=O)N1Cc2ccccc2CC1C(=O)O.Cl (stereo not given) (library stock concentration (final ~1000-fold dilution): 10 mM)", "VAL": 1.07}
{"MOLECULE": "CCCC1CC(C(=O)NC(C(C)Cl)C2OC(SC)C(O)C(O)C2O)N(C)C1 (stereo not given) (library stock concentration (final ~1000-fold dilution): 10 mM)", "VAL": 1.04}
{"MOLECULE": "O=C(O)c1ccc(Br)c(O)c1 (library stock concentration (final ~1000-fold dilution): 10 mM)", "VAL": 0.975}

For the next question, use this molecule.
// lookup NF-kB SEAP reporter activity for Cc1ncc(Cl)cc1NCc1ccc(C(=O)NC(CC2CCCC2)C(=O)NC2CC2)s1 (stereo not given) (library stock concentration (final ~1000-fold dilution): 10 mM)
0.742

* * *

- Test system: RAW-Dual
- ASSAY_PROTOCOL: NF-kB SEAP reporter activity, fold change vs agonist alone; cytotoxicity flag (confluency mask): not cytotoxic; higher = enhanced NF-kB activity
- MEASUREMENT_CONDITIONS: agonist: LPS (TLR4) 0.1 ug/mL
Whole data set: some 2,900 compounds, median “NF-kB SEAP reporter activity, fold change vs agonist alone” near 0.99, cut for the highest 2% near 2.6. The list comes from a sample in which the highest values are over-represented; it also holds close analogues and randomly drawn compounds.
MEASUREMENT_KIND: NF-kB SEAP reporter activity
Answers are plain numbers.

# count of solved cases: 4
{"COMPOUND": "CC(C)CCN1c2nc(Nc3cc(F)c(O)c(F)c3)ncc2N(C)C(=O)C1C (stereo unspecified) (library stock concentration (final ~1000-fold dilution): 10 mM)", "NF-kB SEAP reporter activity": 4.3}
{"COMPOUND": "Oc1ccc(-c2nc(-c3ccc(F)cc3)c(-c3ccncc3)[nH]2)cc1 (library stock concentration (final ~1000-fold dilution): 10 mM)", "NF-kB SEAP reporter activity": 2.59}
{"COMPOUND": "Cn1ncc(Cl)c1-c1cc(C(=O)NC(CN)Cc2cccc(F)c2)sc1Cl (stereo unspecified) (library stock concentration (final ~1000-fold dilution): 10 mM)", "NF-kB SEAP reporter activity": 1.53}
{"COMPOUND": "CCCCN(Cc1ccc(C(=O)NO)cc1)C(=O)Nc1ccccc1 (library stock concentration (final ~1000-fold dilution): 10 mM)", "NF-kB SEAP reporter activity": 6.63}

List NF-kB SEAP reporter activity for every entry below, keeping the order given.
1. CCCn1c(NC(=O)c2cccc(C(N)=O)c2)nc2ccccc21 (library stock concentration (final ~1000-fold dilution): 10 mM)
2. COc1cc(C(=O)N(CCCc2ccccc2)Cc2ccc(CC(=O)O)cc2)cc(OC)c1C (library stock concentration (final ~1000-fold dilution): 10 mM)
3. CN(C)CCCNC(=O)c1ccc(-c2cc(O)c3ncccc3c2)cc1 (library stock concentration (final ~1000-fold dilution): 10 mM)
4. COc1cc(C(=O)N2CCC(N3CCN(C)CC3)CC2)ccc1Nc1ncc2c(n1)N(C)c1ccccc1C(=O)N2C (library stock concentration (final ~1000-fold dilution): 10 mM)
5. O=C(c1ccc(C(=O)N2CCC(N3CCCC3)CC2)c(Nc2ccccc2)c1)N1CCC(N2CCCC2)CC1 (library stock concentration (final ~1000-fold dilution): 10 mM)
6. O=C(NO)c1ccc(CC(=O)N(CCO)c2ccccc2)cc1 (library stock concentration (final ~1000-fold dilution): 10 mM)

[0.482, 1.19, 0.881, 3.59, 0.933, 1.94]

// lookup NF-kB SEAP reporter activity for Cl.Cl.NC1CCC(NC2CC2c2ccccc2)CC1 (stereo unspecified) (library stock concentration (final ~1000-fold dilution): 10 mM)
1.25

* * *

Answer each item with its documented NF-kB SEAP reporter activity.
- Tested on: RAW-Dual
- ASSAY_PROTOCOL: NF-kB SEAP reporter activity, fold change vs agonist alone; higher = enhanced NF-kB activity
- MEASUREMENT_CONDITIONS: library stock concentration (final ~1000-fold dilution): 10 mM; cytotoxicity flag (confluency mask): not cytotoxic; agonist: Imiquimod (TLR7) […]
Whole data set: some 2,900 compounds, median “NF-kB SEAP reporter activity, fold change vs agonist alone” near 0.99, cut for the highest 2% near 2.6. What follows is part of a selection rich in the highest values, with near analogues and random picks from the rest.
Answers are plain numbers.

# count of solved cases: 4
{"COMPOUND": "CC12CCC(O)CC1=CCC1C2CCC2(C)C(C(O)CC(O)(C(F)(F)F)C(F)(F)F)CCC12 (stereo not given)", "NF-kB SEAP reporter activity": 0.815}
{"COMPOUND": "COC(=O)C1=C(C)NC(C)=C(C(=O)OC)C1c1ccccc1[N+](=O)[O-]", "NF-kB SEAP reporter activity": 1.59}
{"COMPOUND": "CC(C)(C)NCC(O)COc1ccccc1C1CCCC1.CC(C)(C)NCC(O)COc1ccccc1C1CCCC1.O=S(=O)(O)O (stereo not given)", "NF-kB SEAP reporter activity": 1.29}
{"COMPOUND": "CC(C)CCN1c2nc(Nc3cc(F)c(O)c(F)c3)ncc2N(C)C(=O)C1C (stereo not given)", "NF-kB SEAP reporter activity": 2.84}

// lookup NF-kB SEAP reporter activity for CCC(Nc1ncnc2[nH]cnc12)c1nc2cccc(F)c2c(=O)n1-c1ccccc1 (stereo not given)
0.75

The reported numbers originate from the supplement of paper PMC10037445.
